System: SK-MEL-2 melanoma
Test: NCI tumour cell line growth inhibition, 48 h
Below, each of the compounds is paired with its reported TGI value.

Cn1c2c(c3ccccc31)CCN1C[C@@H]3CCCC[C@H]3C[C@@H]21 | > 26.7 µM
O=C(O)C12C3CCC(C3)C1(C(=O)O)C1CCC2C1 (stereo not drawn) | > 100 µM

Now take the following compound into account.
Input: // lookup TGI for `CCCCCCCCCN=C(N)c1ccc(N2CCN(c3ccc(C(N)=NCCCCCCCCC)cc3)CC2)cc1`
Output: > 50 µM

----------
Tested on: DMS 273 small cell lung
Test: NCI tumour cell line growth inhibition, 48 h
measurementKind: TGI

As a guide, the following entries are already answered.
COc1ccccc1/C=C1\CCC(Cc2ccccc2)(CN(C)C)C1=O (stereo not given) | 2.48 µM
COC(=O)C(=O)C(C(=O)OC)C(=O)C(=O)Nc1cc(Cl)c(C)cc1S(=O)(=O)O (stereo not given) | > 100 µM
O=C(O)C12C3CCC(C3)C1(C(=O)O)C1CCC2C1 (stereo not given) | > 100 µM
O=C1C(Cl)C(c2ccc(O)cc2)N1n1cnc2ccccc2c1=O (stereo not given) | > 100 µM

Input: // lookup TGI for CC1=C2CC[C@@]3(C)C(=CCC3O)C2(C)CCC1=O (stereo not given in full)
Output: > 100 µM

Reference source for all entries: PubChem BioAssay (NCI)
